- Tested on: S. aureus USA 300
- Measurement notes: Minimal inhibitory concentration, microbroth dilution
- Type: cell-based
- Condition: Staphylococcus aureus, USA300; MIC; read-out: Minimal Inhibitory Concentrations (μM) S. aureus USA 300
Numbered stars: 1 amine (or outer) side, 2 acyl side, 3 side chain; on linkers, the order of the positions; unused ones are H or OH. Bridge positions count the residues as written; N and C are the ends. Square brackets hold non-standard residues; d marks the D form. Peptide text beside a SMILES is read from it. * marks the point of attachment. Piperazine(2S-CO,4-Me) = CN1CCN[C@H](C(=O)O)C1; Phe(3-OMe) = COc1cccc(C[C@H](N)C(=O)O)c1; Phe(3-Me) = Cc1cccc(C[C@H](N)C(=O)O)c1; NH(4-Cl-2-F-phenyl) = Fc1cc(Cl)ccc1N*; Pro(4R-Me) = C[C@H]1CN[C@H](C(=O)O)C1; Hyp = O=C(O)[C@@H]1C[C@@H](O)CN1; aThr = C[C@H](O)[C@H](N)C(=O)O; Pip = O=C(O)[C@@H]1CCCCN1; CO = O=C([*:1])[*:2]
Readout name: MIC
The number alone won't do; follow it with the unit.

Example molecules with recorded MIC:
* Cc1cccc(C[C@H](NC(=O)Nc2ccc(Cl)cc2F)C(=O)N[C@@H]2C(=O)N3C[C@H](O)C[C@H]3C(=O)N3CCCC[C@H]3C(=O)N[C@@H](C)C(=O)N3CCC[C@H]3C(=O)O[C@H]2C)c1 [Compound 50] ({NH(4-Cl-2-F-phenyl)-CO}-[Phe(3-Me)][aThr][Hyp][Pip]AP; ester 2-C) | 1.25 µM
* COc1cccc(C[C@H](NC(=O)Nc2ccc(Cl)cc2F)C(=O)N[C@H]2COC(=O)[C@@H]3C[C@@H](C)CN3C(=O)[C@H](C)NC(=O)[C@@H]3CN(C)CCN3C(=O)[C@@H]3CCCN3C2=O)c1 [Compound 19] ({NH(4-Cl-2-F-phenyl)-CO}-[Phe(3-OMe)]SP[Piperazine(2S-CO,4-Me)]A[Pro(4R-Me)]; ester 2-C) | 10 µM

*Q* Which MIC reading was recorded for the molecule Cc1cccc(C[C@H](NC(=O)Nc2ccc(Cl)cc2F)C(=O)N[C@@H]2C(=O)N3CCC[C@H]3C(=O)N3CCN(C)C[C@H]3C(=O)N[C@@H](C)C(=O)N3C[C@H](C)C[C@H]3C(=O)O[C@H]2C)c1 [Compound 11] ({NH(4-Cl-2-F-phenyl)-CO}-[Phe(3-Me)][aThr]P[Piperazine(2S-CO,4-Me)]A[Pro(4R-Me)]; ester 2-C) ?
*A* 0.078 µM

###

- Test system: S. aureus USA 300
- Measurement notes: Minimal inhibitory concentration, microbroth dilution
- Assay type: cell-based
- Condition: Staphylococcus aureus, USA300; MIC; read-out: Minimal Inhibitory Concentrations (μM) S. aureus USA 300
- Method: Minimal inhibitory concentrations (“MICs”) were determined using the microbroth dilution method according to Clinical Laboratory Standards Institute (CLSI; National, C.F. C. L. S., Methods for Dilution Antimicrobial Susceptibility Tests for Bacteria Grow aerobically-Seventh Edition: Approved Standard M7-A7, CLSI, Wayne, Pa., USA, 2008) and were read by visual inspection. […] After incubations, in all cases the MIC was recorded as the lowest concentration of drug that prevented bacterial growth. […]
Numbered stars: 1 amine (or outer) side, 2 acyl side, 3 side chain; on linkers, the order of the positions; unused ones are H or OH. Bridge positions count the residues as written; N and C are the ends. Square brackets hold non-standard residues; d marks the D form. Peptide text beside a SMILES is read from it. * marks the point of attachment. Piperazine(2S-CO,4-Me) = CN1CCN[C@H](C(=O)O)C1; Phe(3,5-Me2) = Cc1cc(C)cc(C[C@H](N)C(=O)O)c1; Phe(3-Me) = Cc1cccc(C[C@H](N)C(=O)O)c1; X4 = O=C1CN([*:1])[C@H](C(=O)[*:2])CN1; NH(4-Cl-2-F-phenyl) = Fc1cc(Cl)ccc1N*; Pro(4R-Me) = C[C@H]1CN[C@H](C(=O)O)C1; Propanoyl(3-NMe2) = CN(C)CCC(=O)*; Hyp = O=C(O)[C@@H]1C[C@@H](O)CN1; NH(4-Et-phenyl) = CCc1ccc(N*)cc1; aThr = C[C@H](O)[C@H](N)C(=O)O; Pip = O=C(O)[C@@H]1CCCCN1; CO = O=C([*:1])[*:2]; X2 = Fc1cc(N*)ccc1Cl
Give MIC for every item shown.
Numbers only, in µM.

The examples below pair each entry with its known result.
* Cc1cccc(C[C@H](NC(=O)Nc2ccc(Cl)cc2F)C(=O)N[C@H]2COC(=O)[C@@H]3C[C@@H](C)CN3C(=O)[C@H](C)NC(=O)[C@@H]3CCCCN3C(=O)[C@@H]3C[C@@H](O)CN3C2=O)c1 [Compound 10] | 0.313
* Cc1cccc(C[C@H](NC(=O)Nc2ccc(Cl)cc2F)C(=O)N[C@H]2COC(=O)[C@@H]3CCCN3C(=O)[C@H](C)NC(=O)[C@@H]3CCCCN3C(=O)[C@@H]3C[C@@H](O)CN3C2=O)c1 [Compound 48] | 1.25
* Cc1cccc(C[C@H](NC(=O)Nc2ccc(Cl)cc2F)C(=O)N[C@@H]2C(=O)N3C[C@H](OC(=O)CCN(C)C)C[C@H]3C(=O)N3CCCC[C@H]3C(=O)N[C@@H](C)C(=O)N3C[C@H](C)C[C@H]3C(=O)O[C@H]2C)c1 [Compound 46] ({NH(4-Cl-2-F-phenyl)-CO}-[Phe(3-Me)][aThr][Hyp](Propanoyl(3-NMe2))[Pip]A[Pro(4R-Me)]; ester 2-C) | 0.313
* Cc1cc(C)cc(C[C@H](NC(=O)Nc2ccc(Cl)cc2F)C(=O)N[C@@H]2C(=O)N3CCC[C@H]3C(=O)N3CCCC[C@H]3C(=O)N[C@@H](C)C(=O)N3C[C@H](C)C[C@H]3C(=O)O[C@H]2C)c1 [Compound 4] ({NH(4-Cl-2-F-phenyl)-CO}-[Phe(3,5-Me2)][aThr]P[Pip]A[Pro(4R-Me)]; ester 2-C) | 0.625
* Cc1cccc(C[C@H](NC(=O)Nc2ccc(Cl)cc2F)C(=O)N[C@@H]2C(=O)N3CCC[C@H]3C(=O)N3CC(=O)NC[C@H]3C(=O)N[C@@H](C)C(=O)N3C[C@H](C)C[C@H]3C(=O)O[C@H]2C)c1 [Compound 20] ({NH(4-Cl-2-F-phenyl)-CO}-[Phe(3-Me)][aThr]P[X4]A[Pro(4R-Me)]; ester 2-C) | 5
* Cc1cccc(C[C@H](NC(=O)Nc2ccc(Cl)c(F)c2)C(=O)N[C@H]2COC(=O)[C@@H]3C[C@@H](C)CN3C(=O)[C@H](C)NC(=O)[C@@H]3CN(C)CCN3C(=O)[C@@H]3CCCN3C2=O)c1 [Compound 14] ({X2-CO}-[Phe(3-Me)]SP[Piperazine(2S-CO,4-Me)]A[Pro(4R-Me)]; ester 2-C) | 5

*Q* API: value(readout=MIC, system=S. aureus USA 300) for record CCc1ccc(NC(=O)N[C@@H](Cc2cccc(C)c2)C(=O)N[C@H]2COC(=O)[C@@H]3C[C@@H](C)CN3C(=O)[C@H](C)NC(=O)[C@@H]3CN(C)CCN3C(=O)[C@@H]3CCCN3C2=O)cc1 [Compound 16] ({NH(4-Et-phenyl)-CO}-[Phe(3-Me)]SP[Piperazine(2S-CO,4-Me)]A[Pro(4R-Me)]; ester 2-C)
*A* 0.625

Attribution: patent US10570179B2
